# Tested on: Nucleic Acid
# run description: Binding affinity to poly(dA-dT) DNA assessed as change in melting temperature at compound/polynucleotide ratio 0.3 in MES10 buffer by spectrophotometry
# Format: nucleic-acid assay
Class label 1: ΔTm at least 1 °C. Class label 0: ΔTm below 1 °C.

C/N=C(/N)Nc1ccc(Oc2ccc(Oc3ccc(N/C(N)=N/C)cc3)cc2)cc1.Cl.Cl : label 0
N=C(Nc1ccc(Oc2ccc(Oc3ccc(NC(=N)C4CCCCC4)cc3)cc2)cc1)C1CCCCC1 : label 1
CC(C)(C)c1ccc(C(=N)Nc2ccc(Oc3ccc(Oc4ccc(NC(=N)c5ccc(C(C)(C)C)cc5)cc4)cc3)cc2)cc1 : label 0
N=C(Nc1ccc(Oc2cccc(Oc3ccc(NC(=N)C4CCCCC4)cc3)c2)cc1)C1CCCCC1 : label 0
CC(C)/N=C(\N)Nc1ccc(Oc2cccc(Oc3ccc(N/C(N)=N/C(C)C)cc3)c2)cc1.Cl.Cl : label 0

Tell me whether ΔTm is at least 1 °C here: N=C(Nc1ccc(Oc2cccc(Oc3ccc(NC(=N)c4ccccc4)cc3)c2)cc1)c1ccccc1
label 1

Tell me whether ΔTm is at least 1 °C here: CC(C)(C)c1ccc(C(=N)Nc2ccc(Oc3cccc(Oc4ccc(NC(=N)c5ccc(C(C)(C)C)cc5)cc4)c3)cc2)cc1
label 0

Tell me whether ΔTm is at least 1 °C here: N=C(N)Nc1ccc(Oc2ccc(Oc3ccc(NC(=N)N)cc3)cc2)cc1
label 1

Tell me whether ΔTm is at least 1 °C here: N=C(Nc1ccc(Oc2cccc(Oc3ccc(NC(=N)c4ccc(-c5ccccc5)cc4)cc3)c2)cc1)c1ccc(-c2ccccc2)cc1
label 0

----------
Listing of entries alongside the reported ΔTm.
# System: Nucleic Acid
# run description: Binding affinity to poly(dA-dT) DNA assessed as change in melting temperature at compound/polynucleotide ratio 0.3 in MES10 buffer by spectrophotometry
# Format: nucleic-acid assay
Provide the reading as a plain figure in °C.

Quote ΔTm reported for C/N=C(\N)Nc1ccc(Oc2cccc(Oc3ccc(N/C(N)=N/C)cc3)c2)cc1.Cl.Cl please.
0.1

----------
# Tested on: Nucleic Acid
# run description: Binding affinity to poly(dA-dT) DNA assessed as change in melting temperature at compound/polynucleotide ratio 0.3 in MES10 buffer by spectrophotometry
# Assay type: nucleic-acid assay
result type: ΔTm (°C)
Provide the reading as a plain figure in °C.

Study these solved cases before continuing.
N=C(Nc1ccc(Oc2ccc(Oc3ccc(NC(=N)c4ccc(-c5ccccc5)cc4)cc3)cc2)cc1)c1ccc(-c2ccccc2)cc1 : 0.1
N=C(Nc1ccc(Oc2ccc(Oc3ccc(NC(=N)c4ccccc4)cc3)cc2)cc1)c1ccccc1 : 5
CC(C)/N=C(\N)Nc1ccc(Oc2ccc(Oc3ccc(N/C(N)=N/C(C)C)cc3)cc2)cc1.Cl.Cl : 0

Moving on to the next compound.
Check Nucleic Acid data and give ΔTm for N=C(N)Nc1ccc(Oc2cccc(Oc3ccc(NC(=N)N)cc3)c2)cc1 .
1.1
